Let's look at some molecules and their measured RP-LC retention time.
experimental protocol: gradient 5% acetonitrile 3 min, to 50% in 2 min, to 85% in 15 min, held 3 min, 100 µL/min
experimental parameters: column: Zorbax Extend-C18 2.1 x 50 mm; eluents: water / acetonitrile, 0.1% formic acid
measurement kind: RP-LC retention time (s)

{"molecule": "Cc1nc(C2(C)CCN(S(=O)(=O)c3ccc(C(C)(C)C)cc3)CC2)no1", "recorded measurement": 1080}
{"molecule": "Cc1ccc(CNC(=O)c2cc3c(s2)N(C)CCC3)cc1", "recorded measurement": 977}
{"molecule": "CN(C)C(=O)c1csc(S(=O)(=O)N2CCC(C(=O)NCc3ccccc3Cl)CC2)c1", "recorded measurement": 784}
{"molecule": "COc1ccc(NC(=O)C2CCN(S(=O)(=O)c3ccc4[nH]c(=O)sc4c3)CC2)c(OC)c1", "recorded measurement": 774}
{"molecule": "CCc1c(C)nc2ncnn2c1NC(C)C", "recorded measurement": 670}
{"molecule": "O=C1CCCN1CCCN1C(=O)[C@H]2CN(Cc3cccc(Cl)c3F)C[C@H]2C1=O", "recorded measurement": 660}
{"molecule": "COc1ccc(OC)c(NC2=NS(=O)(=O)C(c3ccccc3)=C2C)c1", "recorded measurement": 948}
{"molecule": "CCCn1cc(CNC(=O)C2CCCN(c3nnc4ccc(C(F)(F)F)cn34)C2)c(C)n1 (centres undefined)", "recorded measurement": 709}
{"molecule": "O=C(Cc1cccc(Cl)c1)N1CCc2cc(-c3ccno3)ccc21", "recorded measurement": 1020}
{"molecule": "Cc1nnc(-c2ccc3ccn(CC(=O)N4CCC5(CC4)OCCO5)c3c2)o1", "recorded measurement": 673}
{"molecule": "Cc1cc(=O)n(CC(=O)Nc2ccccc2C#N)cn1", "recorded measurement": 571}
{"molecule": "Cc1cc(C)c(NC(=O)Cn2cccc2-c2nc(-c3ccc4c(c3)OCO4)no2)c(C)c1", "recorded measurement": 1120}
{"molecule": "O=C(Cn1ccn2nc(-c3ccccc3)cc2c1=O)NCc1ccccc1Cl", "recorded measurement": 817}
{"molecule": "O=C(Cc1c(F)cccc1Cl)NC1CCN(c2cc(-c3ccc(F)cc3)[nH]n2)C1 (centres undefined)", "recorded measurement": 760}
{"molecule": "Cc1ccc(-c2noc(CN3N=NC4C(=O)N(c5ccc(C)c(Cl)c5)C(=O)C43)n2)cc1 (centres undefined)", "recorded measurement": 1100}
{"molecule": "O=S(=O)(NCc1ccccc1F)c1c[nH]c2ncccc12", "recorded measurement": 708}
{"molecule": "COc1ccccc1N1CCN(CCCNc2cc(=O)n(C)c(=O)n2C)CC1", "recorded measurement": 637}
{"molecule": "Cc1cc(C)c(S(=O)(=O)N2CCC(C)(C(=O)NCc3ccc4c(c3)OCO4)CC2)cc1C", "recorded measurement": 1010}
{"molecule": "Cc1noc(-c2cc(=O)n(CC(=O)Nc3ccc(C(C)C)cc3)c3ccccc23)n1", "recorded measurement": 1020}

====

experimental protocol: gradient 5% acetonitrile 3 min, to 50% in 2 min, to 85% in 15 min, held 3 min, 100 µL/min
experimental parameters: column: Zorbax Extend-C18 2.1 x 50 mm; eluents: water / acetonitrile, 0.1% formic acid
Let's look at some molecules and their measured RP-LC retention time.
measurement kind: RP-LC retention time (s)

{"molecule": "CC1CCN(c2cc(-c3noc(C(=O)NCCN(C)C)n3)ccn2)CC1", "display unit": "s", "recorded measurement": 566}
{"molecule": "COc1ccc(Oc2cc3c(cc2NC(=O)Nc2ccccc2)n(C)c(=O)n3C)cc1", "display unit": "s", "recorded measurement": 893}
{"molecule": "Cc1ccc2c(Nc3ccc(C)c(C)c3)c(C(=O)N3CCCCC3C)cnc2n1 (centres undefined)", "display unit": "s", "recorded measurement": 672}
{"molecule": "Cn1c(CN2CCN(C(=O)COc3ccc(F)cc3)CC2)nc2ccccc21", "display unit": "s", "recorded measurement": 581}
{"molecule": "C[C@H]1CN(C(=O)c2ccc3ccccc3n2)C[C@@H]1c1nc(-c2ccncc2)no1", "display unit": "s", "recorded measurement": 830}
{"molecule": "COc1ccc(-c2nnc(-c3ccc(C)c(S(=O)(=O)N4CCC(C)CC4)c3)o2)cc1OC", "display unit": "s", "recorded measurement": 1150}
{"molecule": "COc1ccc(-c2nc(C3CC(=O)N(c4ccc(F)cc4)C3)no2)cc1F (centres undefined)", "display unit": "s", "recorded measurement": 969}
{"molecule": "CCOc1ccc(-c2nc3ncccn3c2NCc2ccc(C)cc2)cc1", "display unit": "s", "recorded measurement": 800}
{"molecule": "O=C1c2ccccc2C(=O)c2sc(Nc3ccc(Cl)cc3)nc21", "display unit": "s", "recorded measurement": 1030}
{"molecule": "COc1ccc(NC(=O)Cn2ncc3c(N4CCN(c5ccccn5)CC4)ncnc32)cc1", "display unit": "s", "recorded measurement": 596}
{"molecule": "CCNC(=O)Nc1ccc2c(c1)CN(Cc1ccc(F)cc1F)CCO2", "display unit": "s", "recorded measurement": 611}
{"molecule": "Cc1ccc(C2Cn3cnc(C(=O)N4CCC(C(=O)NCC5CCCCC5)CC4)c3CO2)cc1 (centres undefined)", "display unit": "s", "recorded measurement": 885}
{"molecule": "CCn1cc(-c2nc(CC(=O)N3CCc4ccccc43)cs2)c2cccnc21", "display unit": "s", "recorded measurement": 954}
{"molecule": "COC(=O)c1c(C)[nH]c(C(=O)N2CCCC(C(=O)NCc3cccnc3)C2)c1C (centres undefined)", "display unit": "s", "recorded measurement": 577}
{"molecule": "COCC1CN(S(=O)(=O)c2ccc(C)c(F)c2)CC12CCNCC2 (centres undefined)", "display unit": "s", "recorded measurement": 643}
{"molecule": "CC(C)C(=O)OC[C@H]1O[C@@H](n2ccc(N)nc2=O)[C@](C)(F)[C@@H]1OC(=O)C(C)C", "display unit": "s", "recorded measurement": 799}
{"molecule": "COc1ccc(Cl)c2c(=O)c3c([nH]c12)CCN(CC(=O)Nc1ccc(C)cc1)C3", "display unit": "s", "recorded measurement": 632}
{"molecule": "COc1ccc(NC(=O)Cc2csc(NC(=O)C3CC3)n2)cc1C", "display unit": "s", "recorded measurement": 706}
{"molecule": "O=C(Cn1ccn2nc(-c3ccccc3)c(CO)c2c1=O)Nc1ccc(Cl)cc1F", "display unit": "s", "recorded measurement": 869}

====

experimental protocol: gradient 5% acetonitrile 3 min, to 50% in 2 min, to 85% in 15 min, held 3 min, 100 µL/min
experimental parameters: column: Zorbax Extend-C18 2.1 x 50 mm; eluents: water / acetonitrile, 0.1% formic acid
// assign Satisfied if RP-LC retention time falls strictly below 900 s, else Not satisfied (ties count as Not satisfied)

{"compound": "Cc1cccc(NC(=O)N2CCCC(Cn3cnc4cccnc43)C2)c1C (stereo not given)", "assigned label": "Satisfied"}
{"compound": "O=C(Cn1cnc2c(sc3nc(-c4ccccc4)ccc32)c1=O)Nc1cc(F)cc(F)c1", "assigned label": "Not satisfied"}
{"compound": "O=C(Nc1cc(F)cc(F)c1)c1ccc(N2CCN(c3ccccn3)CC2)c([N+](=O)[O-])c1", "assigned label": "Satisfied"}
{"compound": "Cc1ccc(Oc2nccn3c(=O)n(CC(=O)NCCCc4ccccc4)nc23)cc1", "assigned label": "Not satisfied"}

====

experimental protocol: gradient 5% acetonitrile 3 min, to 50% in 2 min, to 85% in 15 min, held 3 min, 100 µL/min
experimental parameters: column: Zorbax Extend-C18 2.1 x 50 mm; eluents: water / acetonitrile, 0.1% formic acid
// assign True if RP-LC retention time falls strictly below 900 s, else False (ties count as False)

{"compound": "COc1ccc(NC(=O)C2CCN(S(=O)(=O)c3ccc4c(c3)NC(=O)C(C)O4)CC2)cc1 (centres undefined)", "assigned label": "True"}
{"compound": "Cc1cccc(C(=O)N2N=C(c3ccco3)CC2c2cccs2)c1 (centres undefined)", "assigned label": "False"}
{"compound": "CC(C)CNC(=O)c1ccc2nc(CCc3ccc(NC(=O)C(C)C)cc3)[nH]c2c1", "assigned label": "True"}
{"compound": "COc1ccc(O)c2c(=O)c3c(OC)cc4c(c3oc12)[C@@H]1C=CO[C@@H]1O4", "assigned label": "False"}
{"compound": "CC1SC(C)C(=O)N(CC(=O)Nc2ccc3c(c2)OCCO3)C1=O (centres undefined)", "assigned label": "True"}
{"compound": "Cc1ccc(-c2ccc(-n3nc(C)c(S(=O)(=O)Nc4ccc5c(c4)OCCO5)c3C)nn2)cc1C", "assigned label": "False"}
{"compound": "O=C(CC1CCN(C(=O)Nc2ccc(Br)cc2F)CC1)N1CCCCC1", "assigned label": "True"}
{"compound": "Cc1noc(C)c1S(=O)(=O)NCC1CCN(S(=O)(=O)C2CC2)CC1", "assigned label": "True"}
{"compound": "COc1ccccc1-c1cc2c(=O)n(Cc3nc(-c4ccccc4OC)oc3C)ccn2n1", "assigned label": "False"}
{"compound": "O=C(Nc1ccc(N2CCCCS2(=O)=O)cc1)OCc1ccccc1", "assigned label": "True"}
{"compound": "Cc1cc(NC(=O)C2CCN(C(=O)c3cccc(-n4cnnn4)c3)CC2)no1", "assigned label": "True"}
{"compound": "CC(C)S(=O)(=O)c1cc2c(cc1NC(=O)c1ccccc1C(F)(F)F)n(C)c(=O)n2C", "assigned label": "True"}
{"compound": "Cc1ccc(-c2nc(C(=O)N(C)C)c3n2CCCCC3)cc1", "assigned label": "True"}
{"compound": "COc1ccc(C(=O)NCc2c(-c3ccccc3)nc3sc(C)nn23)cn1", "assigned label": "True"}
{"compound": "O=C(CN1CCN(Cc2ccccc2F)C1=O)NCc1ccccc1Br", "assigned label": "True"}
{"compound": "CCOc1ccc(S(=O)(=O)N2CCC(c3noc(-c4cccc(F)c4)n3)CC2)cc1", "assigned label": "False"}
{"compound": "CCc1ccc(NC(=O)CSc2cc(N3CCCCC3)ncn2)cc1", "assigned label": "False"}
{"compound": "CC(=O)NCCc1csc(C2CCN(C(=O)C3CCCO3)CC2)n1 (centres undefined)", "assigned label": "True"}
{"compound": "COc1cccc(CC(=O)N2CCC3(CC2)NCc2ccccc2-n2ccnc23)c1", "assigned label": "True"}
